Cited source: PubChem BioAssay AID463173

# Tested on: DeltatarO mutant
# ASSAY_OVERVIEW: S. aureus survival, RN4220 and DeltatarO strains – OD600, teichoic acid synthesis inhibitors, primary screen (AID 463173)
# TEST_CONTEXT: S. aureus RN4220 wild type/DeltatarO growth, OD600, 18 h, screened at 18.75 µg/mL (by protocol)
The campaign covered roughly 52,000 compounds. About 4,300 (8.3%) were called active. No stated cut-off is given here; in the data, active means survival mostly below about 52% (no sharp cut-off); inactive means mostly above about 56%. The sample holds actives, similar compounds and a random draw of the others, so the mix is not that of the screen.
Just give me one of these, please: active, inactive

Recorded results for 9 compounds are shown here.
Query block: Which outcome did this test record for the compound CCCCN1C(=O)CN(C2CCCCCC2)C(=O)C1c1ccc(OCCC)c(OC)c1 (stereo not given) ?
Result block: inactive

Query block: Which outcome did this test record for the compound `Cc1ccc(C)c(NC(=O)C2CCN(S(=O)(=O)c3c(C)noc3/C=C/c3cccs3)CC2)c1` ?
Result block: inactive

Query block: Which outcome did this test record for the compound CCc1ccc(NC(=O)CC2C(=O)N(c3cccc(OC)c3)C(=O)N2Cc2ccco2)cc1 (stereo not given) ?
Result block: active

Query block: Which outcome did this test record for the compound `Cc1cc(SCC(=O)NCc2ccc(Cl)cc2)nc(=O)[nH]1` ?
Result block: inactive

Query block: Which outcome did this test record for the compound `O=C(CN1Cc2ccccc2C1=O)Nc1cc(F)ccc1F` ?
Result block: inactive

Query block: Which outcome did this test record for the compound COC(=O)c1ccc(NC(=O)CC2C(=O)N(c3cccc(C)c3)C(=O)N2Cc2ccco2)cc1 (stereo not given) ?
Result block: inactive

Query block: Which outcome did this test record for the compound `Cc1ccc(C)c(Cn2c(=O)n(CCc3ccccc3)c(=O)c3c(C)c(C)sc32)c1` ?
Result block: inactive

Query block: Which outcome did this test record for the compound `CCCOc1ccc(-c2nc3ccc(Br)cc3c(=O)o2)cc1` ?
Result block: inactive

Query block: Which outcome did this test record for the compound CCc1ccc(NC(=O)CC2C(=O)N(c3cccc(C)c3)C(=O)N2Cc2ccco2)cc1 (stereo not given) ?
Result block: inactive

Please turn your attention to the following entry.
Query block: Which outcome did this test record for the compound `Cc1cccc(CCNC(=O)c2ccc3c(c2)nc2n3CCCCC2)c1` ?
Result block: inactive

###

# Tested on: DeltatarO mutant
# ASSAY_OVERVIEW: S. aureus survival, RN4220 and DeltatarO strains – OD600, teichoic acid synthesis inhibitors, primary screen (AID 463173)
# TEST_CONTEXT: S. aureus RN4220 wild type/DeltatarO growth, OD600, 18 h, hits give low values, screened at 18.75 µg/mL (by protocol)
Screen size: about 52,000 compounds; about 4,300 (8.3%) were called active. What follows is part of a selection rich in actives, with near analogues and random picks from the rest.
I'd appreciate it if you could supply survival values for the items below.
Answers are plain numbers, in %.

Check out these entries, answers already filled in.
Query block: What value of measured survival is listed for Cc1cc(C)cc(OCC(=O)N(Cc2ccc(C)o2)C2CCS(=O)(=O)C2)c1 (stereo unspecified) ?
Result block: 89

Query block: What value of measured survival is listed for `Fc1ccc(CNCCCSc2nnnn2-c2ccccc2)cc1` ?
Result block: 97

Query block: What value of measured survival is listed for `Clc1cccc(-c2ccc(CNCCSc3nnnn3-c3ccccc3)o2)c1` ?
Result block: 30

Query block: What value of measured survival is listed for `Cc1c(Cl)cccc1-c1ccc(CNCCSc2nnnn2-c2ccccc2)o1` ?
Result block: 62

Query block: What value of measured survival is listed for `COc1c(C)cccc1C(=O)Nc1ccc(-c2nc3ccccc3s2)c(Cl)c1` ?
Result block: 68

Provide survival for all items below, preserving their order.
1. Clc1cccc(CNCCCSc2nnnn2-c2ccccc2)c1
2. COc1ccc2oc(-c3ccc(C)c(NC(=O)c4ccc(-c5ccccc5[N+](=O)[O-])o4)c3)nc2c1
3. Cc1ccc2oc(-c3ccc(C)c(NC(=O)c4ccc(-c5ccccc5[N+](=O)[O-])o4)c3)nc2c1
4. Clc1ccc(-c2ccc(CNCCSc3nnnn3-c3ccccc3)o2)cc1

Result block:
68
42
68
52

Provide survival for all items below, preserving their order.
1. CCOc1ccc(Br)cc1CNCCSc1nnnn1-c1ccccc1
2. Fc1ccc(-c2ccc(CNCCSc3nnnn3-c3ccccc3)o2)cc1

Result block:
1. 23
2. 28
